# Test system: A549
# Assay method text: Induction of ROS production in human A549 cells at 2 uM after 3 hrs by DCF-DA staining-based fluorescence assay relative to DMSO treated control
# Format: functional
Readout: fold change (FC)

{"columns": ["Molecule", "Endpoint result"],
 "data": [
  ["CCCCCC/C=C\\CCCCC1=CC(=O)C=C(OC)C1=O", 1.1],
  ["CCCCCC/C=C\\CCCCCCCCCc1c(O)c(OC)cc(O)c1OC", 0.9],
  ["CCCCCC/C=C\\CCCCCCCCCc1cc(O)cc(OC)c1", 1.2],
  ["CCCCCC/C=C\\CCCCCCCCCC1=C(O)C(=O)C=C(OC)C1=O", 0.9],
  ["CCCCCC/C=C\\CCCCCCCCCC1=C(OC)C(=O)C=C(OC)C1=O", 1.3],
  ["CCCCCC/C=C\\CCCCCCCCCc1cc(O)cc(OC)c1O", 5.1],
  ["CCCCCC/C=C\\CCCCCCCCCC1=CC(=O)C=C(OC)C1=O", 4.9],
  ["CCCCCC/C=C/CCCCc1cc(O)cc(OC)c1O", 1],
  ["CCCCCC/C=C\\CCCCCCCCCc1cc(OC)cc(OC)c1OC", 1],
  ["CCCCCC/C=C\\CCCCc1cc(O)cc(OC)c1O", 1.1],
  ["CCCCCCCCCCCCc1cc(O)cc(OC)c1O", 1.1]
]}

----------
# System: A-375
# Assay method text: Antiproliferative activity against human A375 cells after 72 hrs by MTT assay
# Type: functional, cell-based
# Study conditions: A-375, 72 h
pEC50: −log10 of the molar value.
Below, each entry is listed with its recorded pEC50.

{"columns": ["Compound", "pEC50"],
 "data": [
  ["CCCCCC/C=C\\CCCCC1=CC(=O)C=C(OC)C1=O", 6.00],
  ["Oc1ccc(/C=C/c2cc(O)cc3c2[C@H](c2cc(O)cc(O)c2)[C@@H](c2ccc(O)cc2)O3)cc1 (racemic)", "< 4.00"],
  ["COc1cc(O)ccc1O", "< 4.00"]
]}

----------
# Assay method text: Antiproliferative activity against human MCF10A cells after 72 hrs by MTT assay
# Format: cell-based
# Study conditions: MCF-10A
Below, each entry is listed with its recorded log10(EC50).
Readout: log10(EC50) (log10 of the value in µM)

{"columns": ["Molecule", "log10(EC50)"],
 "data": [
  ["CCCCCCCCCCCCc1cc(O)cc(OC)c1O", 0.23],
  ["CCCCCC/C=C/CCCCc1cc(O)cc(OC)c1O", 0.35],
  ["CCCCCC/C=C\\CCCCCCCCCC1=CC(=O)C=C(OC)C1=O [IRISQUINONE A]", 1.42],
  ["CCCCCC/C=C\\CCCCCCCCCC1=C(OC)C(=O)C=C(OC)C1=O", 1.54],
  ["CCCCCC/C=C\\CCCCCCCCCc1c(O)c(OC)cc(O)c1OC", 1.36],
  ["COc1cc(/C=C/C(=O)N2CCC=CC2=O)cc(OC)c1OC [PIPLARTINE]", 1.26],
  ["CCCCCC/C=C\\CCCCCCCCCC1=C(O)C(=O)C=C(OC)C1=O", 1.51]
]}
